These data points were gathered from PubChem BioAssay (NCI).

# Tested on: MDA-MB-231 breast
# experimentalDetails: NCI tumour cell line growth inhibition, 48 h
measure: TGI (µM)

- COc1nc(Cl)nc(N[C@H](C)c2c3ccccc3cc3ccccc23)n1: 34.4
- CCC1(O)CC(CCN(Cc2ccccc2)C(=O)OCc2ccccc2)C(OCc2ccccc2)C1O (stereo not given): 87.3
- CCC1(c2ccc(N3C(=O)c4cccc5cc([N+](=O)[O-])cc(c45)C3=O)cc2)CCC(=O)NC1=O (stereo not given): 21.4
- CCN(CC)C(=S)SSC(C)C: 32.5
- CC(C)(C)C1CCC2c3c([nH]c4ccccc34)C3C(=O)N(c4ccc([N+](=O)[O-])cc4)C(=O)C3C2C1 (stereo not given): 48.4
